Quick list: Activity per entry.
system: Receptor-interacting serine/threonine-protein kinase 1 (Homo sapiens) (UniProt Q13546)
Sequence (Q13546 whole entry): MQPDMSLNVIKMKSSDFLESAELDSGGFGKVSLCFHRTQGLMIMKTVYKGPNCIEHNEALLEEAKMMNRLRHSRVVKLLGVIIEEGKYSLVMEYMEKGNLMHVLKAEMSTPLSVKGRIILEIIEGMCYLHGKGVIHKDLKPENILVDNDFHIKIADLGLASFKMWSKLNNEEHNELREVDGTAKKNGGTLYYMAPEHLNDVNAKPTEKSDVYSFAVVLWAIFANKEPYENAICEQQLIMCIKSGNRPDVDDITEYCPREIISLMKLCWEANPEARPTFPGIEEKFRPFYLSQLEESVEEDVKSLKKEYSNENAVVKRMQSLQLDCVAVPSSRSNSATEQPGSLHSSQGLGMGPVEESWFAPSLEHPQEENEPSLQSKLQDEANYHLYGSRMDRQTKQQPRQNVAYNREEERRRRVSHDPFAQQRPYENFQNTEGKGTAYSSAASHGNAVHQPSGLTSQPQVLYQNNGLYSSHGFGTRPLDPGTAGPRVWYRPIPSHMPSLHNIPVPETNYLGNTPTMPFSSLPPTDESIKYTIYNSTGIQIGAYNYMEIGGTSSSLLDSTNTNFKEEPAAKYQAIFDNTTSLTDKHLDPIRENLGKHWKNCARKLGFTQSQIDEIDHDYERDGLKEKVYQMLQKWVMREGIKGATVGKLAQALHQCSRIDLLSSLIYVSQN
assay-summary: Inhibition of RIPK1 in human FADD-deficient Jurkat I 2.1 cells assessed as protection against TNFalpha-induced necroptosis by measuring remaining viable cells at 10 uM measured after 24 hrs by MTS assay relative to TNFalpha
Type: cell-based
Write the value in % as a bare number.

Would you please look over these solved cases?
> print(dat)
                              line.notation  result.units  test.result
1             Brc1ccc2nc(NC3CCCCC3)[nH]c2c1             %         43.7
2                C#Cc1ccc2nc(NCCCC)[nH]c2c1             %        -21.3
3                   CCNc1nc2ccc(Br)cc2[nH]1             %         10.4
4           CCCCNc1nc2ccc(-n3cnnn3)cc2[nH]1             %        -1.32
5  CCCCNc1nc2ccc(C(=O)NCCCc3ccccc3)cc2[nH]1             %         -3.6
6   CCCCNc1nc2ccc(C(=O)NCCc3ccccc3)cc2[nH]1             %          2.6

Incoming: Looking for the measured Activity of COC(=O)c1cccc2nc(NC3CCCCC3)[nH]c12 , can you help?
Outgoing: 21.7

Incoming: Looking for the measured Activity of CCNc1nc2ccc(-c3ccccc3Cl)cc2[nH]1 , can you help?
Outgoing: 4.9

Incoming: Looking for the measured Activity of Clc1ccc2nc(NC3CCCCC3)[nH]c2c1 , can you help?
Outgoing: 38.2

Incoming: Looking for the measured Activity of O=[N+]([O-])c1ccc(Nc2nc3ccc([N+](=O)[O-])cc3[nH]2)cc1 , can you help?
Outgoing: 3.6

Incoming: Looking for the measured Activity of CC(C)CNc1nc2ccc([N+](=O)[O-])cc2[nH]1 , can you help?
Outgoing: 53.7

Incoming: Looking for the measured Activity of CCCCNc1nc2cc(C(F)(F)F)cc(Br)c2[nH]1 , can you help?
Outgoing: 23.7
